test system: CHO; assay: Cytotoxicity against CHO cells by LDH release assay; type: cell-based; conditions: Cricetulus griseus
PARAMETER_MEASURED: pIC50
For clarity, pIC50 is expressed as the negative log10 of concentration in mol/L.

API: value(readout=pIC50, system=CHO) for record CC(Oc1ccc(Cl)cc1Cl)C(=O)NCc1ccc2c(ccn2C)c1 (centres undefined)
5.20

Find pIC50 (CHO) for the entry CC(Oc1ccc(Cl)cc1Cl)C(=O)NCc1ccc(F)cc1 (centres undefined)
4.23

Which measured pIC50 belongs to CCC(Oc1ccc(Cl)cc1Cl)C(=O)NCc1ccc2c(c1)OCO2 (centres undefined) , tested on CHO?
4.17

Hi! What's the reported pIC50 for Cc1cccc(CNC(=O)C(C)Oc2ccc(Cl)cc2Cl)c1 (centres undefined) on CHO?
4.35

// lookup pIC50 | system=CHO | key= CC(Oc1ccc(Cl)cc1Cl)C(=O)NCc1ccc2sccc2c1 (centres undefined)
4.52

Notebook entry, CHO assay: pIC50 of CC(Oc1ccc(Cl)cc1Cl)C(=O)NCc1ccccc1 (centres undefined) = ?
4.02

# get_value(readout= pIC50, system= CHO) for C[C@H](NC(=O)[C@@H](C)Oc1ccc(Cl)cc1Cl)c1ccc(F)cc1
4.49

Tell me reported pIC50 for CC(Oc1ccc(Cl)cc1Cl)C(=O)NNc1ccc(F)cc1 (centres undefined) , tested with CHO.
4.46

Form field: pIC50 recorded for CC(Oc1ccc(Cl)cc1Cl)C(=O)NCc1ccc2cc[nH]c2c1 (centres undefined) with CHO (enter value)
5.03

Form field - read-out: pIC50; system: CHO; submitted item: CC(Oc1ccc(Cl)cc1Cl)C(=O)NCc1ccc2occc2c1 (centres undefined)
4.96

Request - read-out pIC50 | tested on CHO | compound CC(Oc1ccc(Cl)cc1Cl)C(=O)NCc1cccc2[nH]ccc12 (centres undefined)
4.62

Given the entry CC(Oc1ccc(Cl)cc1Cl)C(=O)NCc1ccccc1F (centres undefined) , what pIC50 was observed with CHO?
4.33

# query: pIC50 | item CC(Oc1ccc(Cl)cc1Cl)C(=O)NCc1cccc(Cl)c1 (centres undefined) | system: CHO
4.72

Please provide the recorded pIC50 for C[C@@H](Oc1ccc(Cl)cc1Cl)C(=O)N[C@H](C)c1ccc(F)cc1 , tested on CHO.
4.01

Record COc1ccc(CNC(=O)C(C)Oc2ccc(Cl)cc2Cl)cc1OC (centres undefined) : what is its pIC50 with CHO?
4.44

Give CHO pIC50 for CC(Oc1ccc(Cl)cc1Cl)C(=O)NCc1ccc(Cl)cc1 (centres undefined)
4.41

API: value(readout=pIC50, system=CHO) for record CC(Oc1ccc(Cl)cc1Cl)C(=O)NCc1cccc(F)c1 (centres undefined)
4.57

Give the reported pIC50 for CC(Oc1ccc(Cl)cc1Cl)C(=O)NOCc1ccc(F)cc1 (centres undefined) (system: CHO).
4.23

Which measured pIC50 belongs to CC(Oc1ccc(Cl)cc1Cl)C(=O)NC1(c2ccc(F)cc2)CC1 (centres undefined) , tested on CHO?
4.55

Provide value of pIC50 for this record tested with CHO: CC[C@@H](Oc1ncc(Cl)cc1Cl)C(=O)NC(CO)c1ccc(F)cc1 (some centres undefined)
4.12

Request - read-out pIC50 | tested on CHO | compound CC(Oc1ccc(Cl)cc1Cl)C(=O)NCCc1ccc(F)cc1 (centres undefined)
4.77

Find the measured pIC50: item CC(Oc1ccc(Cl)cc1Cl)C(=O)NNCc1ccc(F)cc1 (centres undefined) , target or system CHO.
4.51

API: value(readout=pIC50, system=CHO) for record CC(Oc1ccc(Cl)cc1)C(=O)NCc1ccc2c(c1)OCO2 (centres undefined)
4.19

API: value(readout= pIC50, system= CHO, query= CC(Oc1ccc(Cl)cc1Cl)C(=O)NCc1cc2ccccc2[nH]1 (centres undefined) )
4.92
